System: MCF10A
procedure.details: one-nucleolus phenotype percent effect (relative to siNT 0% and siNOL11 100%); higher = more cells with one nucleolus (ribosome biogenesis inhibition)
test.settings: 20 nM; 72 h
Assign one-nucleolus phenotype percent effect to each entry below.
Could you give the number and then its unit, please?

Exam item: If you can, please state the reported one-nucleolus phenotype percent effect value of AUCCAGUUCUCUGAGGGGGCU [hsa-miR-5195-3p] .
Marked response: 13.3%

Exam item: Could you tell me which one-nucleolus phenotype percent effect is on file for UGCUGAGGUCCGGGCUGUGCC [hsa-miR-7160-5p] ?
Marked response: 47.5%

Exam item: Which one-nucleolus phenotype percent effect value is on record for AUCUGACCUGAUGAAGGU [hsa-miR-4256] ?
Marked response: 30.3%

Exam item: # lookup: one-nucleolus phenotype percent effect of UGGUGCGGAGAGGGCCCACAGUG [hsa-miR-675-5p]
Marked response: 29.5%

Exam item: Need one-nucleolus phenotype percent effect of GGAGGUUGGGAAGGGCAGAG [hsa-miR-6086] , thanks.
Marked response: -8.13%

Exam item: Which one-nucleolus phenotype percent effect is listed for ACCUUGCAUCUGCAUCCCCAG [hsa-miR-6841-3p] ?
Marked response: 15%

Exam item: Which measured one-nucleolus phenotype percent effect value corresponds to UUGAGGAAAAGAUGGUCUUAUU [hsa-miR-3915] ?
Marked response: -3.96%

Exam item: Consider the sequence UCUCACACAGAAAUCGCACCCGU [hsa-miR-342-3p] and give its measured one-nucleolus phenotype percent effect.
Marked response: -2.78%

Exam item: Please give the measured one-nucleolus phenotype percent effect for this sequence: AUGACCUAUGAAUUGACAGAC [hsa-miR-215]
Marked response: 45.7%

Exam item: Which value of one-nucleolus phenotype percent effect has been reported for ACUCCAAGAAGAAUCUAGACAG [hsa-miR-5695] in the records?
Marked response: -26.7%

Exam item: Item UGACCUUUGCCUCUCCCCUCAG [hsa-miR-6759-3p] has what recorded one-nucleolus phenotype percent effect?
Marked response: 51.3%

Exam item: Dear colleague, I am looking for the recorded one-nucleolus phenotype percent effect of the following sequence: CUAGCACACAGAUACGCCCAGA [hsa-miR-585-5p]
Marked response: 46%

* * *

System: MCF10A
procedure.details: percent viability (nuclei count relative to siNT); higher = more viable cells
test.settings: 20 nM; 72 h
property.name: percent viability (%)
Report only the number, with the unit % understood.

Exam item: Recorded percent viability for UGGCUUUUAACUUUGAUGGC [hsa-miR-3119] , please?
Marked response: 17.4

Exam item: Name the recorded percent viability for CGAGGGGUAGAAGAGCACAGGGG [hsa-miR-6738-5p] .
Marked response: 75.7

Exam item: Endpoint output: percent viability of UGAUUGUCCAAACGCAAUUCU [hsa-miR-219-5p] . Value?
Marked response: 82.1

* * *

Test system: MCF10A
procedure.details: percent viability (nuclei count relative to siNT); higher = more viable cells
test.settings: 20 nM; 72 h
property.name: percent viability (%)
The figure you give is taken to be in %; do not add the unit.

Exam item: Please look up its percent viability: UGGGGUAAGGAUAGGAGGGUCA [hsa-miR-6881-5p]
Marked response: 24.8

Exam item: Reported percent viability for UUCCGCCAGUCGGUGGCCGG [hsa-miR-6084] : what is it?
Marked response: 90.2

Exam item: Which percent viability reading was recorded for the sequence UGAUCAGGCAAAAUUGCAGACU [hsa-miR-4772-5p] ?
Marked response: 17

Exam item: # query: percent viability of entry CAGGCAGAAGUGGGGCUGACAGG [hsa-miR-6511a-5p]
Marked response: 69.3

Exam item: Consider the sequence UCAGCUCCUCUCUACCCACAG [hsa-miR-6736-3p] and give its measured percent viability.
Marked response: 37.4

Exam item: # query: percent viability of entry ACACAUGGGUGGCUGUGGCCU [hsa-miR-4717-3p]
Marked response: 66.4

Exam item: Which measured percent viability value corresponds to AGGCCUCUGUGACGUCACGGUGU [hsa-miR-4757-5p] ?
Marked response: 62.5

Exam item: I'd like to know its percent viability. The sequence in question is AAUUGCACUUUAGCAAUGGUGA [hsa-miR-367-3p]
Marked response: 111

Exam item: Returns the measured percent viability for the input sequence. Input: CUUUUUGCGGUCUGGGCUUGC [hsa-miR-129-5p]
Marked response: 39.8

Exam item: For the sequence UCACCUGACCUCCCAUGCCUGU [hsa-miR-3622a-3p] , what percent viability is on record?
Marked response: 103
